- Assay Target: Casein kinase II (Homo sapiens, UniProt P19784+P67870+P68400)
- Sequence (P67870 whole entry): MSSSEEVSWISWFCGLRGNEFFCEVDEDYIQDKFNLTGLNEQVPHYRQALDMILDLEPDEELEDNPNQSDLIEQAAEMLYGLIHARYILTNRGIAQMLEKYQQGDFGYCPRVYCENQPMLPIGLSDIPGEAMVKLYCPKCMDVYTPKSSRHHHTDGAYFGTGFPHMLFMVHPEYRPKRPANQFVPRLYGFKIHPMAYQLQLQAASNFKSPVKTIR
- Sequence (P68400 whole entry): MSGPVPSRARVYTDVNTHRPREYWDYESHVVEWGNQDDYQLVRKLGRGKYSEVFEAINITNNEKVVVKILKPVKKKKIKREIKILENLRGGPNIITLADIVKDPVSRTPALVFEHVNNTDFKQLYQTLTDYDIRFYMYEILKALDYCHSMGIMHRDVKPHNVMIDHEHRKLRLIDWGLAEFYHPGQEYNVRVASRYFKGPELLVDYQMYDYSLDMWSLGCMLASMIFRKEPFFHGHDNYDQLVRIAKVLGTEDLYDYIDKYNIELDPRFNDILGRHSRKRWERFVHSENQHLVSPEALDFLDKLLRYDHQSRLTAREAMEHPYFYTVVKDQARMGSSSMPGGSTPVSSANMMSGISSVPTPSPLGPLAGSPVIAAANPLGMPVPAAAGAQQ
- Sequence (P19784 whole entry): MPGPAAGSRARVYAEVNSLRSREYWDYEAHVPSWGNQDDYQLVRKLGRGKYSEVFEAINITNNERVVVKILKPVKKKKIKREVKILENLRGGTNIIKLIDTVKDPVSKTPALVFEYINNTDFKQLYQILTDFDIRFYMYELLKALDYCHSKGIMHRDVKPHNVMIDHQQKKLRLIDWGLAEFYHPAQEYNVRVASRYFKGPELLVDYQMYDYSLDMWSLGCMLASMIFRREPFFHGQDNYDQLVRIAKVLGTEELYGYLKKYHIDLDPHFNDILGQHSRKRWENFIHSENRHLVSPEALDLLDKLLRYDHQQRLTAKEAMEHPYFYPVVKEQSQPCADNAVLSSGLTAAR
- Run Description: Inhibition of CK2 (unknown origin)
Measurement Kind: IC50 (nM)
Give a bare numeral; the unit nM is implied.

Looking for the measured IC50 of `Cc1nnc(-c2cccc(-c3cnn4ccc(NCCN)nc34)c2)o1` , can you help? 950

----------
Kindly state IC50 for each of the entries shown.
Return type: number; implicit unit nM.

What reported IC50 corresponds to `NCCNc1ccn2ncc(-c3ccc4sccc4c3)c2n1` on Serine/threonine-protein kinase pim-2 (Homo sapiens, UniProt Q9P1W9)? 114

Entry `NCCNc1ccn2ncc(-c3cccc(OCc4ccccc4)c3)c2n1` , system Serine/threonine-protein kinase pim-2 (Homo sapiens, UniProt Q9P1W9): what IC50 was measured? 886

----------
- Assay Target: Serine/threonine-protein kinase pim-2 (Homo sapiens, UniProt Q9P1W9)
- Sequence (Q9P1W9 whole entry): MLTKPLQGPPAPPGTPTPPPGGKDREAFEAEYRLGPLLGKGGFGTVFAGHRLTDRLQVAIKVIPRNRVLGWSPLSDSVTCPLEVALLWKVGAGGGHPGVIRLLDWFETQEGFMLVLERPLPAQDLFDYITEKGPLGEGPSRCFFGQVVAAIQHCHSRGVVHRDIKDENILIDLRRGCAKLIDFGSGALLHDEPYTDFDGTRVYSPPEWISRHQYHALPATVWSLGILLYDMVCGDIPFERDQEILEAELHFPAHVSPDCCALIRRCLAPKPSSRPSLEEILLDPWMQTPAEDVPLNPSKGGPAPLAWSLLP
Exercise: for every item that follows, state its recorded pIC50.
Scale explanation: pIC50 corresponds to minus log10 of a concentration expressed in moles per litre.

Request the reported pIC50 associated with `c1ccc2cc(-c3cnn4ccc(NC5CNC5)nc34)ccc2c1` 6.11

// returns reported pIC50 for input `NCCNc1ccn2ncc(-c3cccc(-c4ccco4)c3)c2n1` 7.05

Consider the molecule `N[C@H]1CC[C@H](Nc2ccn3ncc(-c4ccc5ccccc5c4)c3n2)CC1` and give its measured pIC50. 6.72

Requested field: pIC50. Item: `NCCCNc1ccn2ncc(-c3ccc4ccccc4c3)c2n1` 5.64

Give its pIC50 value. Item: `NCCNc1ccn2ncc(-c3cccc(-c4ccccc4)c3)c2n1` 6.86

Requested read-out: pIC50. Entry: `N[C@@H]1CCCC[C@H]1Nc1ccn2ncc(-c3ccc4ccccc4c3)c2n1` 6.80

----------
Measurement Kind: IC50

Field: IC50 (Serine/threonine-protein kinase pim-1 (Homo sapiens)). Entry: `Nc1ccn2ncc(-c3ccc4ccccc4c3)c2n1` 804 nM

Serine/threonine-protein kinase pim-1 (Homo sapiens) / IC50 / `NCCCNc1ccn2ncc(-c3ccc4ccccc4c3)c2n1` : value? 5.1 nM

Query for Serine/threonine-protein kinase pim-1 (Homo sapiens): what IC50 does the record show for `NCCNc1ccn2ncc(-c3cccc(N4CCCCC4)c3)c2n1` ? 3510 nM

Missing value: IC50, Serine/threonine-protein kinase pim-1 (Homo sapiens), entry `NCCNc1ccn2ncc(-c3cc(-c4ccccc4)no3)c2n1` . Fill in? 162 nM

GET /values?readout=IC50&system=Serine/threonine-protein kinase pim-1 (Homo sapiens)&item= `NCCNc1ccn2ncc(-c3ccc(-c4ccccc4)s3)c2n1` 834 nM

Could you share what IC50 was measured for `c1ccc2cc(-c3cnn4ccc(N5CCNCC5)nc34)ccc2c1` , tested on Serine/threonine-protein kinase pim-1 (Homo sapiens)? 6.8 nM

# value lookup — system Serine/threonine-protein kinase pim-1 (Homo sapiens), readout IC50, item `NCCNc1ccn2ncc(-c3ccc(-c4ccccc4)cc3)c2n1` 247 nM

Give the reported IC50 for `N[C@H]1CC[C@H](Nc2ccn3ncc(-c4ccc5ccccc5c4)c3n2)CC1` (system: Serine/threonine-protein kinase pim-1 (Homo sapiens)). 3.1 nM

----------
- Assay Target: hERG (KCNH2) (Homo sapiens, UniProt Q12809)
- Sequence (Q12809 whole entry): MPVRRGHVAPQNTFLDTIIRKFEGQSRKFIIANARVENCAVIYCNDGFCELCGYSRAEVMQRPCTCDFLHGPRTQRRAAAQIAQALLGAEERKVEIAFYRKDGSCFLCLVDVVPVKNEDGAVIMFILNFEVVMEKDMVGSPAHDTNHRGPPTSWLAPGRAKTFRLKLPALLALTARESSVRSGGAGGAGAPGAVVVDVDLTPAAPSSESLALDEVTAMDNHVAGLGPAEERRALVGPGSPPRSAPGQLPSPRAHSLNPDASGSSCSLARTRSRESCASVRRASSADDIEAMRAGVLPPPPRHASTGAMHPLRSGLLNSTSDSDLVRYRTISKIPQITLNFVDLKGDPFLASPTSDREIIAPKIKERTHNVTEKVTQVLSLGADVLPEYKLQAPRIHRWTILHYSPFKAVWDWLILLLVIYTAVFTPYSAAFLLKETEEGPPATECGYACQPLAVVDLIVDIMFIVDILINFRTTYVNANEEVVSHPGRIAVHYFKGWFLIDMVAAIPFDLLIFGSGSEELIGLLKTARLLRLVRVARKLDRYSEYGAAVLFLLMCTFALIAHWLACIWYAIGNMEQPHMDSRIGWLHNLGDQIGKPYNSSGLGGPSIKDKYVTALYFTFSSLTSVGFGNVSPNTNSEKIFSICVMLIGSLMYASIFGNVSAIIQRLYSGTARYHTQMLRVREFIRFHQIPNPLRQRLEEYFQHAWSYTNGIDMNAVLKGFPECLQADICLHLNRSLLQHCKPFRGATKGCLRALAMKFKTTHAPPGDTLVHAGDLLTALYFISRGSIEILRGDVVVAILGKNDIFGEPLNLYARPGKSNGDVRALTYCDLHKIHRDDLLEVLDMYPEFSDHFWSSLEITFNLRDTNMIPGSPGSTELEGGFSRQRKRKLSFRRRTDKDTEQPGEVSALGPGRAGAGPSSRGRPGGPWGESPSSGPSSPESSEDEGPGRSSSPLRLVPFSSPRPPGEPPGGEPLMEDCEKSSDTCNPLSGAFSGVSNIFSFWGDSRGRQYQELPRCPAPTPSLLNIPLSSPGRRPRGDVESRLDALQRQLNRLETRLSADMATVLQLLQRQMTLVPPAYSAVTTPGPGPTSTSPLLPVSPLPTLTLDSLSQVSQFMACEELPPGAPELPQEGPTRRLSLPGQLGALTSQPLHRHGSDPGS
- Run Description: Inhibition of human ERG (unknown origin) at 10 uM
Measurement Kind: inhibition at 10 µM (%)
The response must be a number in % with no trailing unit.

Please report the recorded inhibition at 10 µM for `Cc1nnc(-c2cccc(-c3cnn4ccc(NCCN)nc34)c2)o1` . 11
